# PROTOCOL DESCRIPTION: Solubility measurement in n-butylbenzene
# Assay type: physicochemical
# CONDITION CONTEXT: room temperature, weight percent based on total solution weight
Collected Solubility in butyl benzene values appear next to each entry.
OUTCOME MEASURE: Solubility in butyl benzene (wt %)

[
  {
    "COMPOUND": "CC(C)[Si](C#Cc1c2ccc(-c3cccs3)cc2c(C#C[Si](C(C)C)(C(C)C)C(C)C)c2ccc(-c3cccs3)cc12)(C(C)C)C(C)C [Example 1]",
    "ENDPOINT VALUE": 0.05
  },
  {
    "COMPOUND": "CC(C)[Si](C#Cc1c2ccc(-c3ccc(C=O)s3)cc2c(C#C[Si](C(C)C)(C(C)C)C(C)C)c2ccc(-c3ccc(C=O)s3)cc12)(C(C)C)C(C)C [Example 9]",
    "ENDPOINT VALUE": 0.04
  },
  {
    "COMPOUND": "CC(C)[Si](C#Cc1c2ccc(-c3ccc(-c4cccs4)s3)cc2c(C#C[Si](C(C)C)(C(C)C)C(C)C)c2ccc(-c3ccc(-c4cccs4)s3)cc12)(C(C)C)C(C)C [Example 8]",
    "ENDPOINT VALUE": 0.2
  },
  {
    "COMPOUND": "Cc1ccc(-c2ccc3c(C#C[Si](C(C)C)(C(C)C)C(C)C)c4cc(-c5ccc(C)s5)ccc4c(C#C[Si](C(C)C)(C(C)C)C(C)C)c3c2)s1 [Example 2]",
    "ENDPOINT VALUE": 0.05
  },
  {
    "COMPOUND": "CCCc1ccc(-c2ccc3c(C#C[Si](C(C)C)(C(C)C)C(C)C)c4cc(-c5ccc(CCC)s5)ccc4c(C#C[Si](C(C)C)(C(C)C)C(C)C)c3c2)s1 [Example 5]",
    "ENDPOINT VALUE": 1.4
  }
]
